The measured values listed here are drawn from patent US20260347464.

Each item that follows carries a reported EC50.
# assay_target: HuCD100 (cell surface) (human, UniProt Q92854)
# Sequence (Q92854 22-734): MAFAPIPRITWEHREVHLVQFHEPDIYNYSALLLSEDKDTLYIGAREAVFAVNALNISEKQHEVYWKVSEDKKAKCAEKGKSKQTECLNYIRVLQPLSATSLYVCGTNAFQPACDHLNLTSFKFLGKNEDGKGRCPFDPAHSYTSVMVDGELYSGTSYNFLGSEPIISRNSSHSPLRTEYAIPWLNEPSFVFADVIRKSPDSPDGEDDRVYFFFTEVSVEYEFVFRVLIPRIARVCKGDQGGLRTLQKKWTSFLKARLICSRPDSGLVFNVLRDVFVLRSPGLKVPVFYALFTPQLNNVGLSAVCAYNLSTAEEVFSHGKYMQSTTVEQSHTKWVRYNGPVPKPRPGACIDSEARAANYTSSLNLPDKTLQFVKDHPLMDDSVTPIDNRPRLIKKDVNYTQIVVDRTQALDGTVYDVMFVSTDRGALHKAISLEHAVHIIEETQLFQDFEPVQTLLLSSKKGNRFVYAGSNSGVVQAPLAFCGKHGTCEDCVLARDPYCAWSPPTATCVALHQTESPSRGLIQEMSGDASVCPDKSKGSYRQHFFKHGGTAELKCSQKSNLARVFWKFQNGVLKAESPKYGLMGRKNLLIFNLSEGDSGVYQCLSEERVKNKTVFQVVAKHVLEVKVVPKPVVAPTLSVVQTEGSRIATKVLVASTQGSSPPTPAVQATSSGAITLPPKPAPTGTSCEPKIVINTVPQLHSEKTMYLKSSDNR
# test_method_notes: FACS, HEK293
attribute_measured: EC50 (µg/mL)

>  <binder>
H12 (antibody, V domains shown) VH: QVQLQESGPGLVKPSGTLSLTCAVSGGSISSSNWWSWVRQPPGKGLEWIGEIYHSGSTNYNPSLKSRVTISVDKSKNQFSLKLSSVTAADTAVYYCARFVSSGYLGAFDIWGQGTMVTVSS VL: QSVLTQPPSVSVSPGQTASITCSGDRLGDKYSYWYQQKPGQSPVLVIYQDSKRPSGIPERFSGSNSGNTATLTISGTQAMDEADYYCQVWDSSTAVFGGGTKLTVL

>  <reported_measurement>
0.0369

$$$$
>  <binder>
C-C171 (antibody, V domains shown) VH: QVQLQESGPGLVKPSGTLSLSCTVSGGSMSSNYLWSWVRQTPGKGLQWIGDIFHSGRTYYNPSLKRRVTISVDKSKNQFSLKLSSVTAADTAVYYCARQGWTTPFDYWGQGTPVTVSS VL: DIQLTQSPSSVSASVGDRVTITCRASQGISSWLAWYQQKPGKAPKLLIYAASSLQSGVPSRFSGSGSGTDFTLTISSLQPEDFATYYCLQDVYYPWTFGQGTTVEIK

>  <reported_measurement>
0.167

$$$$
>  <binder>
H96 (antibody, V domains shown) VH: QVQLQQWGAGLLKPSETLSLTCAVYGGSFSGYYWSWIRQPPGKGLEWIGEINHSGSTNYNPSLKSRVTISVDTSKNQFSLKLSSVTAADTAVYYCARESNSYGYGTDYWGQGTLVTVSS VL: QSALTQPPSVSVSPGQTATITCSGDKLGEKYAFWYQQKPGQSPVLVIYQDNKRPSGIPERFTGSNSGNTATLTIFGTQTMDEADYYCQAWDSSTYVFGTGTKVTVL

>  <reported_measurement>
0.0225

$$$$
